Some variants, each annotated with its measured pKd.
B1: GFP aptamer (parent)
chain: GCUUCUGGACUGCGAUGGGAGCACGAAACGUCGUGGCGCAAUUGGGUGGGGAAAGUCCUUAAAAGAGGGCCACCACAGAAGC

Variants of: B1
assayInfo: HiTS-RAP
testParameters: with EGFP
The scale used: pKd is minus the common logarithm of the concentration in molar units.

>  <sequenceChange>
G45U

>  <endpointResult>
7.64

$$$$
>  <sequenceChange>
G12A

>  <endpointResult>
7.65

$$$$
>  <sequenceChange>
U31C C58U

>  <endpointResult>
8.94

$$$$
>  <sequenceChange>
C10U U34C

>  <endpointResult>
8.36

$$$$
>  <sequenceChange>
A52C

>  <endpointResult>
7.36

$$$$
>  <sequenceChange>
C76G

>  <endpointResult>
7.54

$$$$
>  <sequenceChange>
C32G

>  <endpointResult>
8.31

$$$$
>  <sequenceChange>
A79G

>  <endpointResult>
8.37

$$$$
>  <sequenceChange>
A27U

>  <endpointResult>
8.40

$$$$
>  <sequenceChange>
A28G A77G

>  <endpointResult>
8.59

$$$$

*Q* Tell me the measured pKd of A27G C37U , please.
*A* 8.48

*Q* Which value of pKd has been reported for `A52G` in the records?
*A* 7.91

*Q* Which pKd value is on record for `A61U` ?
*A* 8.31
